GI50 overview
test system: HCT-15 colon; assay: NCI tumour cell line growth inhibition, 48 h

[
  {
    "structure_string": "C=C1C(=O)O[C@@H]2C[C@@H]1CC/C(C)=C/CC/C(C)=C/CC[C@@]2(C)O",
    "GI50": "18.2 µM"
  },
  {
    "structure_string": "Cc1cc(I)cc(CN(C)CCCN2CCCCCCC2)c1O",
    "GI50": "10.9 µM"
  },
  {
    "structure_string": "CCCCCCCCCCCCCC1=NC(C)(C)CN1C(C)C",
    "GI50": "1.32 µM"
  }
]

###

tested on: M14 melanoma; test: NCI tumour cell line growth inhibition, 48 h

[
  {
    "compound": "Nc1ccc(Oc2ccc(C34CC5CC6C3CC3CC4C(C5)C6(c4ccc(Oc5ccc(N)cc5)cc4)C3)cc2)cc1",
    "TGI": "21.4 µM"
  },
  {
    "compound": "Cc1cc(I)cc(CN(C)CCCN2CCCCCCC2)c1O",
    "TGI": "33.2 µM"
  },
  {
    "compound": "CC(C)CCN1c2nc(Nc3cc(F)c(O)c(F)c3)ncc2N(C)C(=O)C1C (centres undefined)",
    "TGI": "26.1 µM"
  },
  {
    "compound": "COCC1OC(Sc2ccccc2)C(O)C(OC)C1OC (centres undefined)",
    "TGI": "> 100 µM"
  },
  {
    "compound": "CN(C(=O)C1=CCC2(CC1)OCCO2)c1ccccc1OS(=O)(=O)C(F)(F)F",
    "TGI": "> 100 µM"
  },
  {
    "compound": "CC(C)N(C(=O)C12C3C4C5(C#N)C3C1(C#N)C5C42I)C(C)C (centres undefined)",
    "TGI": "> 100 µM"
  },
  {
    "compound": "CC1=C(C(=O)Nc2ccccc2)C(c2ccccc2)C(C(=O)Nc2ccccc2)=C(C)N1",
    "TGI": "> 100 µM"
  },
  {
    "compound": "CC(C)(C)[Si](OC1CC(n2cnc3c(N)ncnc32)OC1CO)(c1ccccc1)c1ccccc1 (centres undefined)",
    "TGI": "> 100 µM"
  },
  {
    "compound": "CS(=O)(=O)Nc1ccc2c(c1)oc(=O)c1ccccc12",
    "TGI": "> 100 µM"
  }
]
